test target: T1, cyno FcRn/b2M (cyno, UniProt Q8SPV9 24-297; Q8SPW0 21-119, biotinylated)
T1 construct: bought recombinant biotinylated protein (Immunitrack ITF05 or ACRO FCM-C82W5); also called cFcRn; cFcRn/cb2M
T1 sequence (Q8SPV9 24-297 limits assumed, chain 1 of 2): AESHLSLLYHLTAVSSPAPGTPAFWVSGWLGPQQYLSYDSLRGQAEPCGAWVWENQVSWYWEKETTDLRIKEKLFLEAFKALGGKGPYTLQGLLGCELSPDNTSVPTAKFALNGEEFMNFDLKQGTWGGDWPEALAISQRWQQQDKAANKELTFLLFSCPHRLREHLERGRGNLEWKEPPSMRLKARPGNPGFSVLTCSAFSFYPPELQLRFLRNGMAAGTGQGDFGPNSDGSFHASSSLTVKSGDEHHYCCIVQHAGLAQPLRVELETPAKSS
T1 sequence (Q8SPW0 21-119 limits assumed, chain 2 of 2): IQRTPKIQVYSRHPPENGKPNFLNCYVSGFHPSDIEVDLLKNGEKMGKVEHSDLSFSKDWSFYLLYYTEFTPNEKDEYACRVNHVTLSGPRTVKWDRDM
protocol details: SPR pH 6.0;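 note: surface plasmon resonance kinetics at 25 °C, diluted periplasmic extracts injected over immobilized ligand surfaces, 120 s association then 600–3600 s dissociation, running buffer containing 150 mM NaCl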
outcome measure: koff (s⁻¹)

(P) T0263018B11 A33T (VHH, name in Kabat numbering, FLAG3-His6 tagged) VHH: EVQLVESGGGVVQPGGSLRLSCAASGFTFSSYTMYWVRQAPGKGLEWVSAISSGGGSTDYADSVKGRFTISRDNSKNTLYLQMNSLRPEDTALYYCAADTLYTSLTWYSYWGQGTLVTVSS
(Q) T0263018B11 S52H (VHH, name in Kabat numbering, FLAG3-His6 tagged) VHH: EVQLVESGGGVVQPGGSLRLSCAASGFTFSSYAMYWVRQAPGKGLEWVSAIHSGGGSTDYADSVKGRFTISRDNSKNTLYLQMNSLRPEDTALYYCAADTLYTSLTWYSYWGQGTLVTVSS
(R) T0263018B11 T96S (VHH, name in Kabat numbering, FLAG3-His6 tagged) VHH: EVQLVESGGGVVQPGGSLRLSCAASGFTFSSYAMYWVRQAPGKGLEWVSAISSGGGSTDYADSVKGRFTISRDNSKNTLYLQMNSLRPEDTALYYCAADSLYTSLTWYSYWGQGTLVTVSS
Rank the 3 binders shown above by koff, smallest number first. Respond with an ordered listing of the labels, as requested.
P, R, Q
(P: 0.00011 s⁻¹, R: 0.0012 s⁻¹, Q: 0.0022 s⁻¹)
